Assay: pharmacokinetics after single oral administration as microemulsion
Type: in vivo
Details: White New Zealand, plasma, rabbit, 20 mg/kg, n = 3

smiles.notation: O=C1O[C@@H](Cn2ccnn2)CN1c1ccc(N2CCOCC2)c(F)c1
value.unit: %
bioavailability: 72.9

smiles.notation: O=C1O[C@@H](Cn2ccnn2)CN1c1ccc(N2CCN(C(=O)C(F)(F)F)CC2)c(F)c1
value.unit: %
bioavailability: 13.9

###

Assay: tissue to plasma distribution
Type: in vivo
Conditions: New Zealand White, lung; rabbit, 2 x 10 mg/kg IV, 2 h after second dose, n = 3; read-out: Tissue to Plasma Concentration Ratio, Lung

smiles.notation: O=C1O[C@@H](Cn2ccnn2)CN1c1ccc(N2CCOCC2)c(F)c1
Kp at 2 h: 1.59
//
smiles.notation: O=C1O[C@@H](Cn2ccnn2)CN1c1ccc(N2CCN(C(=O)C(F)(F)F)CC2)c(F)c1
Kp at 2 h: 1.5

###

Reported fraction unbound at 1 h values follow for various compounds
Test: plasma protein binding (ultrafiltration)
Format: in vitro ADME
Settings: rabbit, plasma, over both concentrations

smiles.notation: O=C1O[C@@H](Cn2ccnn2)CN1c1ccc(N2CCOCC2)c(F)c1
fraction unbound at 1 h: 0.62 to 0.63

smiles.notation: O=C1O[C@@H](Cn2ccnn2)CN1c1ccc(N2CCN(C(=O)C(F)(F)F)CC2)c(F)c1
fraction unbound at 1 h: 0.09 to 0.1

###

Assay: tissue to plasma distribution
Format: in vivo
Details: New Zealand White, muscle; rabbit, 2 x 10 mg/kg IV, 2 h after second dose, n = 3; read-out: Tissue to Plasma Concentration Ratio, Muscles
measured.property: Kp at 2 h

compound: O=C1O[C@@H](Cn2ccnn2)CN1c1ccc(N2CCN(C(=O)C(F)(F)F)CC2)c(F)c1 [PH051]
test.value: 1.58
//
compound: O=C1O[C@@H](Cn2ccnn2)CN1c1ccc(N2CCOCC2)c(F)c1 [PH027]
test.value: 1.25

###

Assay: plasma protein binding (ultrafiltration)
Format: in vitro ADME
Details: rabbit, plasma, 1000 μg/L, n = 3, read-out: Plasma protein binding (% bound) (converted)
Protocol: The remaining volume of the plasma samples obtained by centrifugation in the blood to plasma partition experiment, about 600 μL, was immediately placed in disposable ultrafiltration devices (Centrifree®, EMD Millipore Corp., Billerica, MA, USA), and centrifuged in a temperature controlled centrifuge at 37 °C. […] The plasma protein binding for the three compounds in rabbit plasma was determined in triplicates at two different concentrations. […]

smiles.notation: O=C1O[C@@H](Cn2ccnn2)CN1c1ccc(N2CCOCC2)c(F)c1
fraction unbound at 1 h, 1000 μg/L: 0.622

smiles.notation: O=C1O[C@@H](Cn2ccnn2)CN1c1ccc(N2CCN(C(=O)C(F)(F)F)CC2)c(F)c1
fraction unbound at 1 h, 1000 μg/L: 0.091

###

Test: tissue to plasma distribution
Format: in vivo
Conditions: New Zealand White, eye (vitreous fluid); rabbit, 2 x 10 mg/kg IV, 2 h after second dose, n = 3; read-out: Tissue to Plasma Concentration Ratio, Eye (vetrus fluid)

smiles.notation: O=C1O[C@@H](Cn2ccnn2)CN1c1ccc(N2CCN(C(=O)C(F)(F)F)CC2)c(F)c1
Kp at 2 h: 0.81
--
smiles.notation: O=C1O[C@@H](Cn2ccnn2)CN1c1ccc(N2CCOCC2)c(F)c1
Kp at 2 h: 0.989

###

Experiment: pharmacokinetics after single oral administration as suspension
Assay type: in vivo
Conditions: New Zealand White, plasma, rabbit, 20 mg/kg, n = 4
Reported bioavailability values follow for various compounds
measured.property: bioavailability

smiles.notation: O=C1O[C@@H](Cn2ccnn2)CN1c1ccc(N2CCN(C(=O)C(F)(F)F)CC2)c(F)c1
test.value: 4.73%
//
smiles.notation: O=C1O[C@@H](Cn2ccnn2)CN1c1ccc(N2CCOCC2)c(F)c1
test.value: 22.1%

###

Experiment: tissue to plasma distribution
Format: in vivo
Conditions: New Zealand White, liver; rabbit, 2 x 10 mg/kg IV, 2 h after second dose, n = 3; read-out: Tissue to Plasma Concentration Ratio, Liver

smiles.notation: O=C1O[C@@H](Cn2ccnn2)CN1c1ccc(N2CCOCC2)c(F)c1
Kp at 2 h: 2.91
//
smiles.notation: O=C1O[C@@H](Cn2ccnn2)CN1c1ccc(N2CCN(C(=O)C(F)(F)F)CC2)c(F)c1
Kp at 2 h: 1.7

###

Assay: pharmacokinetics after single oral administration as suspension
Assay type: in vivo
Conditions: New Zealand White, plasma, rabbit, 20 mg/kg, n = 4
Reported AUC values follow for various compounds

compound: O=C1O[C@@H](Cn2ccnn2)CN1c1ccc(N2CCOCC2)c(F)c1 [PH027]
AUC: 5010 ng·h/mL
--
compound: O=C1O[C@@H](Cn2ccnn2)CN1c1ccc(N2CCN(C(=O)C(F)(F)F)CC2)c(F)c1 [PH051]
AUC: 369 ng·h/mL
--
compound: CC(=O)NC[C@H]1CN(c2ccc(N3CCOCC3)c(F)c2)C(=O)O1 [Linezolid, reference compound]
AUC: 6250 ng·h/mL

###

Assay: pharmacokinetics after single IV administration
Format: in vivo
Conditions: White New Zealand, urine and plasma, rabbit, 5 mg/kg, from renal excretion rate and plasma drug concentration, read-out: Renal clearance (converted)
Procedure: IV administration of the compounds under investigation, and collection of blood samples were through a catheter inserted in the marginal ear vein of the rabbit (I-Cath, CharterMed Inc., Winston-Salem, NC, USA). […] Three groups of rabbits (n = 4, each) received 5 mg/kg dose of each compound via the IV catheter. […] The volumes of urine samples were determined and recorded, and aliquots were kept at −80 °C until analysis. […]

molecule: O=C1O[C@@H](Cn2ccnn2)CN1c1ccc(N2CCOCC2)c(F)c1 [PH027]
CL renal: 0.0633 mL/min/kg
//
molecule: CC(=O)NC[C@H]1CN(c2ccc(N3CCOCC3)c(F)c2)C(=O)O1 [Linezolid, reference compound]
CL renal: 1.38 mL/min/kg

###

Assay: pharmacokinetics after single oral administration as suspension
Type: in vivo
Details: New Zealand White, plasma, rabbit, 20 mg/kg, n = 4
measured.property: Tmax (h)

compound: O=C1O[C@@H](Cn2ccnn2)CN1c1ccc(N2CCN(C(=O)C(F)(F)F)CC2)c(F)c1
test.value: 1
--
compound: O=C1O[C@@H](Cn2ccnn2)CN1c1ccc(N2CCOCC2)c(F)c1
test.value: 1
--
compound: CC(=O)NC[C@H]1CN(c2ccc(N3CCOCC3)c(F)c2)C(=O)O1 [Linezolid, reference compound]
test.value: 1

###

Test: tissue to plasma distribution
Assay type: in vivo
Settings: New Zealand White, heart; rabbit, 2 x 10 mg/kg IV, 2 h after second dose, n = 3; read-out: Tissue to Plasma Concentration Ratio, Heart
Reported Kp at 2 h values follow for various compounds
measured.property: Kp at 2 h

compound: O=C1O[C@@H](Cn2ccnn2)CN1c1ccc(N2CCOCC2)c(F)c1 [PH027]
measured.property: Kp at 2 h
test.value: 1.36
//
compound: O=C1O[C@@H](Cn2ccnn2)CN1c1ccc(N2CCN(C(=O)C(F)(F)F)CC2)c(F)c1 [PH051]
measured.property: Kp at 2 h
test.value: 1.56

###

Test: tissue to plasma distribution
Type: in vivo
Conditions: New Zealand White, brain; rabbit, 2 x 10 mg/kg IV, 2 h after second dose, n = 3; read-out: Tissue to Plasma Concentration Ratio, Brain
Reported Kp at 2 h values follow for various compounds

compound: O=C1O[C@@H](Cn2ccnn2)CN1c1ccc(N2CCN(C(=O)C(F)(F)F)CC2)c(F)c1 [PH051]
Kp at 2 h: 0.179

compound: O=C1O[C@@H](Cn2ccnn2)CN1c1ccc(N2CCOCC2)c(F)c1 [PH027]
Kp at 2 h: 0.223

###

Reported fraction unbound at 1 h, 250 μg/L values follow for various compounds
Test: plasma protein binding (ultrafiltration)
Format: in vitro ADME
Conditions: rabbit, plasma, 250 μg/L, n = 3, read-out: Plasma protein binding (% bound) (converted)

smiles.notation: O=C1O[C@@H](Cn2ccnn2)CN1c1ccc(N2CCN(C(=O)C(F)(F)F)CC2)c(F)c1
fraction unbound at 1 h, 250 μg/L: 0.089
//
smiles.notation: O=C1O[C@@H](Cn2ccnn2)CN1c1ccc(N2CCOCC2)c(F)c1
fraction unbound at 1 h, 250 μg/L: 0.613

###

Reported blood plasma ratio at 1 h, 1000 μg/L values follow for various compounds
Assay: blood to plasma partition
Type: in vitro ADME
Conditions: heparinized whole blood; rabbit blood, 1000 μg/L, 37 °C, n = 3
Description: The spiked blood samples were kept at 37 °C in a shaking water bath for one hour, and plasma was then obtained by centrifugation at 37 °C. Aliquots of about 400 μL, of each plasma sample were kept frozen at −80 °C until analysis. The blood to plasma distribution ratio was determined from the ratio of the nominal total whole blood concentration and the measured plasma concentration for each compound.

smiles.notation: O=C1O[C@@H](Cn2ccnn2)CN1c1ccc(N2CCN(C(=O)C(F)(F)F)CC2)c(F)c1
blood plasma ratio at 1 h, 1000 μg/L: 0.833

smiles.notation: O=C1O[C@@H](Cn2ccnn2)CN1c1ccc(N2CCOCC2)c(F)c1
blood plasma ratio at 1 h, 1000 μg/L: 1.01
